assay-target: zSmo ectodomain (Danio rerio, UniProt Q5RH73)
Construct: zSmo-ectodomain: a.a; 29–212), fused C-terminally with a with a hexa-histidine (His6) tag; His6 (C)
Sequence (Q5RH73 29-212): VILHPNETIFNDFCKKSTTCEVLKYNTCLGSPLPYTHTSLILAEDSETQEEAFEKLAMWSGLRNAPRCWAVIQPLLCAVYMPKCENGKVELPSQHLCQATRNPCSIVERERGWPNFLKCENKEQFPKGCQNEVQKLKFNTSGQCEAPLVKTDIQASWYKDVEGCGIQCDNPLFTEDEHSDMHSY
test: Ligand affinity chromatography: zSmo ectodomain binding to 20(S)-OHC beads
condition-details: fixed amount of protein, increasing amounts of bead-immobilized sterol; read-out: Kd, zSmo ectodomain-20(S)-OHC interaction
measure: Kd

Query: Give the value of Kd reported for the following: CC(C)CCC[C@](C)(O)[C@H]1CC[C@H]2[C@@H]3CC=C4C[C@@H](O)CC[C@]4(C)[C@H]3CC[C@@]21C [20(S)-OHC, 20(S)-hydroxycholesterol]
Response: ~170 nM
